Molecular target: Vascular endothelial growth factor receptor 2 (Homo sapiens) (UniProt P35968);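 also: each value is the mean percent inhibition of KDR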
Sequence (P35968 whole entry): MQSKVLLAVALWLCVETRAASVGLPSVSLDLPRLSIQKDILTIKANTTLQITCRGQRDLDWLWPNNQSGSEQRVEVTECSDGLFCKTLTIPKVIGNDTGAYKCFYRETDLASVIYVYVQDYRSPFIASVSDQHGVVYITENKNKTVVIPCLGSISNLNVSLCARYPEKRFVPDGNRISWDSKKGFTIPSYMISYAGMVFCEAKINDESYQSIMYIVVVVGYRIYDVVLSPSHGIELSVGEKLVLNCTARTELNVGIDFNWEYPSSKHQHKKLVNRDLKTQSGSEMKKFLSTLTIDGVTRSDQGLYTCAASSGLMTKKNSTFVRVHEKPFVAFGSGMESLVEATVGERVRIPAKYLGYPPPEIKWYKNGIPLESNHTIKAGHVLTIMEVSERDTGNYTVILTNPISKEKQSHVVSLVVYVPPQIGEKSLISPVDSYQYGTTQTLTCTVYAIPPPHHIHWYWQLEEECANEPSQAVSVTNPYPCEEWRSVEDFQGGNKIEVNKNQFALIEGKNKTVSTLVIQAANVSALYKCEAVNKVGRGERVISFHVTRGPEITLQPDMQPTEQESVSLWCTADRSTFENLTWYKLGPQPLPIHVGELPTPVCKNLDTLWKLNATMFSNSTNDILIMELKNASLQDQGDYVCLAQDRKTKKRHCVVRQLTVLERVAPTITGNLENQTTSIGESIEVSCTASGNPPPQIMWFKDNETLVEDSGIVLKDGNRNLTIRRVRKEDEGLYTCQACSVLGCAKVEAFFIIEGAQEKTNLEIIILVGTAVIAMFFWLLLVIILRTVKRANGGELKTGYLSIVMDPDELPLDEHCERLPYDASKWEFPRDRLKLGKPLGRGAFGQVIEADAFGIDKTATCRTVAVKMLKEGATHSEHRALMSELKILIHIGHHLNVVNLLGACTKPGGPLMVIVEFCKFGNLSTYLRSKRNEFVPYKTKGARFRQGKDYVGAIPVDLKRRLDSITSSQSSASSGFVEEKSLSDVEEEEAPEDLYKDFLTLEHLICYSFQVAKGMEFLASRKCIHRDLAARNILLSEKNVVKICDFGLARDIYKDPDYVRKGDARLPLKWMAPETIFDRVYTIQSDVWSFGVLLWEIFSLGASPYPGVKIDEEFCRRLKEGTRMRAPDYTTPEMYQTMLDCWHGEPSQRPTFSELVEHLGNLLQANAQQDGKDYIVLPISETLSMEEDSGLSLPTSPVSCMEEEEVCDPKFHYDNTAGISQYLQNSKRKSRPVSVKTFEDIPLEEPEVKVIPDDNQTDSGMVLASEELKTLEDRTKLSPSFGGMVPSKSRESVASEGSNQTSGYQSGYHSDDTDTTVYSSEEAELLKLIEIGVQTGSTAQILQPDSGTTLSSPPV
Settings: at 1 µM
test.readout: inhibition (%)
Write the value in % as a bare number.

- molecule: "CN(C)CCOc1ccc(-c2nc(-c3ccncc3)c(-c3ccc4c(c3)CC/C4=N\\O)[nH]2)cc1"
  inhibition / %: 5.84
- molecule: "COc1ccc(-c2cc(-c3c[nH]nc3-c3ccccn3)ccn2)cc1"
  inhibition / %: 48
- molecule: "COc1ccc(-c2oc3ncnc(N)c3c2-c2ccc(NC(=O)Nc3cc(C(F)(F)F)ccc3F)cc2)cc1"
  inhibition / %: 73.7
- molecule: "CC1=C(C(=O)Nc2cc(Cl)c3[nH]ncc3c2)C(c2ccc(C(F)(F)F)cc2)CC(=O)N1 (stereo not given)"
  inhibition / %: 6.91
- molecule: "CCn1c(-c2nonc2N)nc2cnc(Oc3cccc(NC(=O)c4ccc(N(C)C)cc4)c3)cc21"
  inhibition / %: 8.86
- molecule: "COc1cccc(-n2ncc3c(N/N=C/c4ccc(F)cc4)ncnc32)c1"
  inhibition / %: 20.6
- molecule: "COC(=O)Nc1nc2ccc(Oc3ccc(NC(=O)Nc4cccc(Cl)c4)cc3)cc2[nH]1"
  inhibition / %: 62.5
- molecule: "CNC(=O)c1cncc(/C=C/c2ccccc2Cl)c1"
  inhibition / %: 8.36

Exercise: Can you look up inhibition on Vascular endothelial growth factor receptor 2 (Homo sapiens) (UniProt P35968) for Cc1cccc(Nc2ncc(-c3ccccc3)o2)c1 ?
Key: 21.3

Exercise: Can you look up inhibition on Vascular endothelial growth factor receptor 2 (Homo sapiens) (UniProt P35968) for c1ccc(-c2nc3n(c2-c2ccc4c(c2)OCO4)CCC3)nc1 ?
Key: 11.7
